target: Ro15-4513 binding (GABA-A receptor); assay: Ro15-4513 displacement
propertyMeasured: pIC50
Quick note: pIC50 means taking -log10 of the concentration in moles per liter.

[[record]]
molecule = "O=C1CC[C@H]([C@H]2c3ccccc3CCN2S(=O)(=O)c2ccccc2)O1 (racemic)"
testtarget = "Ro15-4513 binding (GABA-A receptor)"
observedresult = 4.70


Now, please, on to the next molecule.
Query: Kindly indicate its recorded pIC50. Item: O=C1CCC(C2c3ccccc3CCN2C(=O)OCc2ccccc2)O1 (racemic)
Response: 6.70

---

molecular target: picrotoxin-binding site of the GABA-A receptor; construct: other: cerebellum; test: Displacement of 35S-TBPS from brain membranes; set-up: species or system rats; conditions: cerebellum
propertyMeasured: pIC50
Conceptually, pIC50 converts a concentration in mol/L into minus its log10.

Query: Find the measured pIC50 of O=C1C=C[C@@H]([C@H]2c3ccccc3CCN2C(=S)Oc2ccccc2)O1 (racemic) and report it.
Response: 4.52

---

Measured Inhibition of the tritiated ligands % Flu accompanies every entry in the list below.
target: benzodiazepine-binding site of the GABA-A receptor (Rattus norvegicus, UniProt P18508+P62813); construct: IC50 Flu / BZ receptor; other: cerebellum (ce); other: cerebellum (ce; BZ1 subtype); other: 10 μM; cerebellum; other: 100 μM; other: 0.5 μM; test: Displacement of tritiated flunitrazepam from brain membranes; details: 10 μM; tissue not stated
Sequence (P62813 28-455): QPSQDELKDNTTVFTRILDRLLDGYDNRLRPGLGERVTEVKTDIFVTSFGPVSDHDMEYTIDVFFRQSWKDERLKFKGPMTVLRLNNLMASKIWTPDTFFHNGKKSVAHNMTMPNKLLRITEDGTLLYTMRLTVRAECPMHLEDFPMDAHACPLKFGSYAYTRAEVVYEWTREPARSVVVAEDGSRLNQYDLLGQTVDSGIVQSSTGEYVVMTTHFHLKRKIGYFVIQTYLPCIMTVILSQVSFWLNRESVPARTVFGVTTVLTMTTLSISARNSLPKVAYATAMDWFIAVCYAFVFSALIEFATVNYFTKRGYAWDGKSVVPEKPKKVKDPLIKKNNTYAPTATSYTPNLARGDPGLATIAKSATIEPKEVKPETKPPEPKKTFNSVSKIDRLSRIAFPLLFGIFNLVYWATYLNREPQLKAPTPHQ
Sequence (P18508 39-466): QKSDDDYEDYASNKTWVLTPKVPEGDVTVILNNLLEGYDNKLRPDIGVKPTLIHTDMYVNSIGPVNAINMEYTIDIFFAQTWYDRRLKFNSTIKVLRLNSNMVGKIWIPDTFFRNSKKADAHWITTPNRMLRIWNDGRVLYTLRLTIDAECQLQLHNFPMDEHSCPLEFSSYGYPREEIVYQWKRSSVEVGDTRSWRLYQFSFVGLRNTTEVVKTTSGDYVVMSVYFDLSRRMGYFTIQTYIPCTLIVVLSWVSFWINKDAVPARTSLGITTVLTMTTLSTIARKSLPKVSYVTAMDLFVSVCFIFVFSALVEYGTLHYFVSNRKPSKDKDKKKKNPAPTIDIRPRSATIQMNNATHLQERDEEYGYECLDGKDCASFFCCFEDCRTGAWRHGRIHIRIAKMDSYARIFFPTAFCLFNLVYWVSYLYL
Sequence (P63138 26-474 partner): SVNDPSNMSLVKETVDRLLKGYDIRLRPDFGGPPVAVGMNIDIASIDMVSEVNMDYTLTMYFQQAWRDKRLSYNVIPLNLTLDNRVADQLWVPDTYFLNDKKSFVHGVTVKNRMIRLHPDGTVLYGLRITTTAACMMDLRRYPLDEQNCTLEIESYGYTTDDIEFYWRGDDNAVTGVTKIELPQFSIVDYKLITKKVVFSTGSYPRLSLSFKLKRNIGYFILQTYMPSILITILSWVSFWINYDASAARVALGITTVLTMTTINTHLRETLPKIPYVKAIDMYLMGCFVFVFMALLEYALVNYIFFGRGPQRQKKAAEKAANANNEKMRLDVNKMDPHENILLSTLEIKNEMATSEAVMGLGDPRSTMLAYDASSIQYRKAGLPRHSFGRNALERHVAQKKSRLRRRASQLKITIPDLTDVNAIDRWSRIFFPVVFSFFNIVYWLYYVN

[[record]]
compound = "O=C1C=CC(C2c3cc4c(cc3CCN2C(=O)OCc2ccccc2)OCO4)O1 (racemic)"
observedresult = "20%"

[[record]]
compound = "O=C1C=CC(C2c3ccccc3CCN2C(=O)OCc2ccccc2)O1 (racemic) [Compound 51]"
observedresult = "50%"

[[record]]
compound = "Cc1ccc(S(=O)(=O)N2CCc3ccccc3C2[C@H]2CCC(=O)O2)cc1 (mixture of isomers)"
observedresult = "20%"


Here's the next entry for you.
Query: For the compound O=C1C=CC(C2c3ccccc3CCN2C(=O)OCc2ccccc2)O1 (racemic) [Compound 50] , give its reported Inhibition of the tritiated ligands % Flu.
Response: 90%

---

Below is a list of entries, each paired with its recorded melting point value.

Reference set, count: 3
[[record]]
compound = "COc1cc2c(cc1OC)[C@H]([C@@H]1CCC(=O)O1)NCC2 (racemic)"
propertymeasured = "melting point"
observedresult = "119 °C"

[[record]]
compound = "O=C1CC[C@H]([C@H]2c3ccccc3CCN2S(=O)(=O)c2ccccc2)O1 (racemic)"
propertymeasured = "melting point"
observedresult = "177 to 179 °C"

[[record]]
compound = "O=C1CCC(C2c3ccccc3CCN2S(=O)(=O)c2ccc(Cl)cc2)O1 (racemic)"
propertymeasured = "melting point"
observedresult = "145 to 147 °C"


Now consider the entry below.
Query: Identify measured melting point associated with O=C1CCC(C2c3ccccc3C=CN2C(=O)OCc2ccccc2)O1 (racemic)
Response: 109 to 111 °C

---

target: α1β2γ2 subtype of the GABA receptor (Rattus norvegicus, UniProt P18508+P62813+P63138); construct: expressed in transfected cells; host or cells: Xenopus laevis oocytes (cRNA injection); test: Electrophysiology: modulation of GABA currents in Xenopus oocytes expressing recombinant GABA-A receptors; assay type: cell-based; settings: 100 μM compound with GABA; α1β2γ2 in oocytes
Sequence (P63138 25-474 limits assumed, one chain of several): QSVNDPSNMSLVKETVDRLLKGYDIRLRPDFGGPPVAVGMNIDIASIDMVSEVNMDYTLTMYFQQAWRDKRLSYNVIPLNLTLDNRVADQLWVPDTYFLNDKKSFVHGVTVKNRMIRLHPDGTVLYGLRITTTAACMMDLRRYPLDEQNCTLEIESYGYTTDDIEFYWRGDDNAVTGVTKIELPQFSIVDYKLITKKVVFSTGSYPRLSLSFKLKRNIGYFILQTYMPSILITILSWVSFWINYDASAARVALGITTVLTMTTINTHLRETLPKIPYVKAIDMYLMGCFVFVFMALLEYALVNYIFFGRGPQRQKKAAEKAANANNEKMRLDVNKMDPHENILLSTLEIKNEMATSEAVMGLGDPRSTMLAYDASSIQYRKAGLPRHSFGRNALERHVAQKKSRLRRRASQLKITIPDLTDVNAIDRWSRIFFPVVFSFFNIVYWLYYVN
// % stimulation of the GABA currents (100 μM) lookup, one value per entry
Number only, in %; omit the unit.

[[record]]
compound = "COc1cc2c(cc1OC)C(C1C=C(C)C(=O)O1)N(C(=O)OCc1ccccc1)CC2 (racemic) [Compound 46]"
observedresult = 24

[[record]]
compound = "CC1=C[C@@H]([C@H]2c3cc4c(cc3CCN2C)OCO4)OC1=O (racemic)"
observedresult = "−7"


Query: Return value of % stimulation of the GABA currents (100 μM) for input COc1cc2c(cc1OC)C(C1C=CC(=O)O1)NCC2 (racemic) , no commentary.
Response: −45

Query: Name the recorded % stimulation of the GABA currents (100 μM) of the item Cc1ccc(S(=O)(=O)N2CCc3ccccc3C2C2CCC(=O)N2)cc1 (racemic) in your answer.
Response: 26
